List of Delta pEC50 values.
biological target: human nicotinic acetylcholine receptor subtype a4b2 (Homo sapiens, UniProt P17787+P43681); construct: expressed in transfected cells; experiment: FLIPR nAChR a4b2 positive allosteric modulator activity (modulation of nicotine-induced response); assay type: cell-based; details: shift of nicotine pEC50 in the presence of 10 μM test compound compared to nicotine alone, HEK-293 cells stably expressing hα4β2
Sequence (P43681 29-627 limits assumed): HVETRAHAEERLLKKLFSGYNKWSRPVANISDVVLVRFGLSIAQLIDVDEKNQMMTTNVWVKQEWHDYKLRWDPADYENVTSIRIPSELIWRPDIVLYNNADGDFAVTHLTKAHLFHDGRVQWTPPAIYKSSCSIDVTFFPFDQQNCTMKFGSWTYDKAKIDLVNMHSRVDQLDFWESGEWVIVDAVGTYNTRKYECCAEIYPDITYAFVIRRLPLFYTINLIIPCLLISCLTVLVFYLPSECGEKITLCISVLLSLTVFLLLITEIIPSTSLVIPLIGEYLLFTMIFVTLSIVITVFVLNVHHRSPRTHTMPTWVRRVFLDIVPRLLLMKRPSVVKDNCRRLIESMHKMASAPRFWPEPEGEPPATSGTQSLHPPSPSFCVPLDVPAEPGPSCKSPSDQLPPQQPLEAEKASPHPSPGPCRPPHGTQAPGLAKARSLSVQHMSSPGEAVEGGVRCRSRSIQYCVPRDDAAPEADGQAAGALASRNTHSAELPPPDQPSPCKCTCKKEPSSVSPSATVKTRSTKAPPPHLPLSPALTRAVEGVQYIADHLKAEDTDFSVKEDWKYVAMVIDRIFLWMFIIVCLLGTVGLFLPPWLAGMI
Sequence (P17787 26-502): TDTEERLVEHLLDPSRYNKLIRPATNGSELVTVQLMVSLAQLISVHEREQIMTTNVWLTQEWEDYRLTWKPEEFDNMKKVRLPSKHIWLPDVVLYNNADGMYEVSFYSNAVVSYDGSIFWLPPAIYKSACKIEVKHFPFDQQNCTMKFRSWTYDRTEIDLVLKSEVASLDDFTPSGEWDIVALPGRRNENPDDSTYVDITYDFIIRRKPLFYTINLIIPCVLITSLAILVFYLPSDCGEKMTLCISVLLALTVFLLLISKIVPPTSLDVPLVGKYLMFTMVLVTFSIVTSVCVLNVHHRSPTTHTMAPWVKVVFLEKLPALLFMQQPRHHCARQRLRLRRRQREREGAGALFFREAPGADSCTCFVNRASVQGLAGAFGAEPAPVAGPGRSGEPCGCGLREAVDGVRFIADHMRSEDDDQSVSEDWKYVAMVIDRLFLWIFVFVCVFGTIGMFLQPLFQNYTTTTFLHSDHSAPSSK

>  <MOLECULE>
N#Cc1cccc(-c2nnn(-c3cncc(F)c3)n2)c1 [Compound 2.6]

>  <ASSAY_VALUE>
1.8

$$$$

Query: Report its Delta pEC50 with human nicotinic acetylcholine receptor subtype a4b2 (Homo sapiens, UniProt P17787+P43681) as the test system: N#Cc1ccc(-n2nnc(-c3cccnc3)n2)cc1C#N [Compound 2.14]
Response: 1.1

Query: Report its Delta pEC50 with human nicotinic acetylcholine receptor subtype a4b2 (Homo sapiens, UniProt P17787+P43681) as the test system: N#Cc1cccc(-n2nnc(-c3cccnc3)n2)c1 [Compound 2.1]
Response: 1.9
